Every entry's value here was drawn from paper PMC6197228.

test.system: UniProt O14920
Sequence (O14920 1-756): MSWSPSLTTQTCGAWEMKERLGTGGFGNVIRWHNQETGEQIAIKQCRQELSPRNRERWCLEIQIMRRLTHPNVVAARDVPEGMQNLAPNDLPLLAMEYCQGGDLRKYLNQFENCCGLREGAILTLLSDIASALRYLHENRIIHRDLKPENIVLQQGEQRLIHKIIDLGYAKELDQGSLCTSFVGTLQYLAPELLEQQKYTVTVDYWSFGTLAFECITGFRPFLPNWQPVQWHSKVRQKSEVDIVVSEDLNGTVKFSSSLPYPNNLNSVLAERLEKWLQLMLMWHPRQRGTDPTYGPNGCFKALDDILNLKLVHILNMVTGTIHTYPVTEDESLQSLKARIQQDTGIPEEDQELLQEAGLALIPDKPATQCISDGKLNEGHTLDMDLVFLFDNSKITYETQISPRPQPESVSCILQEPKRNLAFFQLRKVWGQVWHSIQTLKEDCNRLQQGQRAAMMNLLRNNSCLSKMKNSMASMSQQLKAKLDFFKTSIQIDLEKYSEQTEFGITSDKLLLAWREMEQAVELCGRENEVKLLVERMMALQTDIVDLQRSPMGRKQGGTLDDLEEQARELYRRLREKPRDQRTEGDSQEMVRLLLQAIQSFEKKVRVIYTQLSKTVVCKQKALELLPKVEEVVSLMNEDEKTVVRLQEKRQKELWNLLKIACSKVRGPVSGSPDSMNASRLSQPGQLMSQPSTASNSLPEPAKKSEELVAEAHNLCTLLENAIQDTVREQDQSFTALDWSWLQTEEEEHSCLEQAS

# smiles.record, IC50 / µM
data = [
    ("O=C(O)/C=C/c1ccc2noc(-c3ccccc3)c2c1", 50.5),
]

* * *

test.system: UniProt:Q14164
Sequence (Q14164 1-716): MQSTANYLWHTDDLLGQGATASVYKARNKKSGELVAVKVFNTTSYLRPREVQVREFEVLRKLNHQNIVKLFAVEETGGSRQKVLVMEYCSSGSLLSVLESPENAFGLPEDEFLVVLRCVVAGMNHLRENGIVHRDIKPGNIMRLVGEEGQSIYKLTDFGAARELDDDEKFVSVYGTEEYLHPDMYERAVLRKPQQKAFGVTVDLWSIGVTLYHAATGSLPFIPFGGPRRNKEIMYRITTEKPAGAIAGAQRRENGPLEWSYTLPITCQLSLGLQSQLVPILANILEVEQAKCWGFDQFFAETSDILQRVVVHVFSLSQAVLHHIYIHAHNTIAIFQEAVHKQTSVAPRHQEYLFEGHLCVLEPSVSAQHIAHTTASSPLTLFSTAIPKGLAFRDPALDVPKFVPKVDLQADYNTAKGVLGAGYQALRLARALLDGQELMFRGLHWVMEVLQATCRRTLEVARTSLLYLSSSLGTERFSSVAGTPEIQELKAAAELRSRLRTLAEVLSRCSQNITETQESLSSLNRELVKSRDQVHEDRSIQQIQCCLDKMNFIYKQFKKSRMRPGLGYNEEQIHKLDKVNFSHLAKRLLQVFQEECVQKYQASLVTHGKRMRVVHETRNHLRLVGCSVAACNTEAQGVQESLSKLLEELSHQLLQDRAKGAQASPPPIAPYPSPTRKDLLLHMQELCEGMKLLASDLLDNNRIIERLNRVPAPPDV
pIC50: −log10 of the molar value.

# smiles.record, pIC50
rows = [
    ("O=C(O)/C=C/c1ccc2noc(-c3ccccc3)c2c1", "~5.97"),
]

* * *

test.system: TANK-binding kinase 1 (TBK1) (Homo sapiens)
Sequence (Q9UHD2 whole entry): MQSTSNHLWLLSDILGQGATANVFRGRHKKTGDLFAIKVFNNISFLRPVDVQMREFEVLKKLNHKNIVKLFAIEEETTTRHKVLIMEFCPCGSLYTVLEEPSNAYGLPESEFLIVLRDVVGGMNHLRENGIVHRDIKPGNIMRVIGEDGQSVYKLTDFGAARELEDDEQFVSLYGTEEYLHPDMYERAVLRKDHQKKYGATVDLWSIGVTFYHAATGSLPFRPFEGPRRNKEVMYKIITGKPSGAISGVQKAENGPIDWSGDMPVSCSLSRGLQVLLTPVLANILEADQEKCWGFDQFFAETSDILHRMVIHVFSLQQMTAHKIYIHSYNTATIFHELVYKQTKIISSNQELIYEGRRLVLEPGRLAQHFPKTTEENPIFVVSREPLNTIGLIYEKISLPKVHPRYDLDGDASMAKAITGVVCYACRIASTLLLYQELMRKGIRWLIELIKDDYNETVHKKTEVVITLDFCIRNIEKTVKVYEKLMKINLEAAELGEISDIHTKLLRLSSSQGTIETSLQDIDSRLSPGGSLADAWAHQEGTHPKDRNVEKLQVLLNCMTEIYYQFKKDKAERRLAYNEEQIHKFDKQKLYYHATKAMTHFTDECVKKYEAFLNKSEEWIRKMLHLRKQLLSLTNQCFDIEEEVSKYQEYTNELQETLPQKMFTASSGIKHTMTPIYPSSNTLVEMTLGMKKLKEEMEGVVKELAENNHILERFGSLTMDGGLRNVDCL

# smiles.record, IC50, nM
measured = [
    ("O=C(O)/C=C/c1ccc2noc(-c3ccccc3)c2c1", 400),
]

* * *

test.system: IKKα (Homo sapiens)
Sequence (O15111 1-745): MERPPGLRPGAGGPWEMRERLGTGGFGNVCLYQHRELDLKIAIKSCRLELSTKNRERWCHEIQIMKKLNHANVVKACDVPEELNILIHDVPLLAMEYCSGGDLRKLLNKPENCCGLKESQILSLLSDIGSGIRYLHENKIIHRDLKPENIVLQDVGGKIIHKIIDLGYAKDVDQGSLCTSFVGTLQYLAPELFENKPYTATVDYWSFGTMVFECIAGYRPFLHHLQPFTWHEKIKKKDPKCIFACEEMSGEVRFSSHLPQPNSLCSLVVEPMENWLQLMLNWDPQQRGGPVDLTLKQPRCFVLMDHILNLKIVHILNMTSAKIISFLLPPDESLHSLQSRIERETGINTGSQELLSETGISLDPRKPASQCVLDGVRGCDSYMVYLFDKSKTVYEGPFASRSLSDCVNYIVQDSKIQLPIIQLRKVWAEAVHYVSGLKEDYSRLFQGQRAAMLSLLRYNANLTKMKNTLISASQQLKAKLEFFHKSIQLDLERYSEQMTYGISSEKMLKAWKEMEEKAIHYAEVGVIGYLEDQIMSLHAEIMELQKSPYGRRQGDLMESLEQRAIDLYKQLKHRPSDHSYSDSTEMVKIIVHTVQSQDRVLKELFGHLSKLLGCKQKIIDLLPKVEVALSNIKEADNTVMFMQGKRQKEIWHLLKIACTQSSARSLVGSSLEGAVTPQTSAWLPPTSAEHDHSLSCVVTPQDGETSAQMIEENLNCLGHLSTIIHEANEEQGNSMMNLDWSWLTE
pIC50: −log10 of the molar value.

# compound, pIC50
measured = [
    ("O=C(O)/C=C/c1ccc2noc(-c3ccccc3)c2c1 [PIAA]", 4.33),
]
